Origin of values: patent US6656932B2

tgt: MMP-1FL (full-length interstitial collagenase) (Homo sapiens, UniProt P03956)
Sequence (P03956 100-469): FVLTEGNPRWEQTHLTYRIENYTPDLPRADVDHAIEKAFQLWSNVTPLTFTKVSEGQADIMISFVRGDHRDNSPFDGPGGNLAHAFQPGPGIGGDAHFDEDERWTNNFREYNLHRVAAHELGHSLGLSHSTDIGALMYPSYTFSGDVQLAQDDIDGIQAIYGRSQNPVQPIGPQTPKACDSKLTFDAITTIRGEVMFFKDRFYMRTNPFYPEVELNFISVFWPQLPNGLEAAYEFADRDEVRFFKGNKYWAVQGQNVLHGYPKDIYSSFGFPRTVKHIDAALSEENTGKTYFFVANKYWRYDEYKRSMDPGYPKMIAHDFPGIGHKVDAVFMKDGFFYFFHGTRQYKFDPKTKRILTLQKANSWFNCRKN
experimental_protocol: Thiopeptolide hydrolysis assay, MMP-1FL
Assay type: biochemical
assay_setup: Table 2; thiopeptolide substrate, HEPES pH 7.0; read-out: IC50 (μM) Versus Certain MMPs: MMP01 (FL)
parameter: IC50

INSERT INTO measurements (smiles_input, tgt, obs_value) VALUES
  ('CN1C(=O)N(Cc2ccc(C(=O)O)cc2)S(=O)(=O)c2cc(C(=O)NCc3ccc(F)cc3)ccc21', 'MMP-1FL (full-length interstitial collagenase) (Homo sapiens, UniProt P03956)', '> 100 µM'),
  ('CN1C(=O)N(Cc2ccccc2)S(=O)(=O)c2cc(C(=O)NCc3ccc4nsnc4c3)ccc21', 'MMP-1FL (full-length interstitial collagenase) (Homo sapiens, UniProt P03956)', '> 30 µM'),
  ('COc1ccc(CNC(=O)c2ccc3c(c2)S(=O)(=O)N(Cc2ccc(C(=O)N4CCCCC4)cc2)C(=O)N3C)cc1', 'MMP-1FL (full-length interstitial collagenase) (Homo sapiens, UniProt P03956)', '> 30 µM'),
  ('COC(=O)c1ccc(CN2C(=O)N(C)c3ccc(C(=O)NCc4ccc(F)cc4)cc3S2(=O)=O)cc1', 'MMP-1FL (full-length interstitial collagenase) (Homo sapiens, UniProt P03956)', '> 30 µM'),
  ('COc1ccc(CNC(=O)c2ccc3c(c2)S(=O)(=O)N(Cc2ccc(C(N)=O)cc2)C(=O)N3C)cc1', 'MMP-1FL (full-length interstitial collagenase) (Homo sapiens, UniProt P03956)', '> 30 µM'),
  ('COc1ccc(CNC(=O)c2ccc3c(c2)S(=O)(=O)N(Cc2ccccc2)C(=O)N3C)cc1', 'MMP-1FL (full-length interstitial collagenase) (Homo sapiens, UniProt P03956)', '> 30 µM'),
  ('COc1cccc(CNC(=O)c2ccc3c(c2)S(=O)(=O)N(Cc2ccc(C(=O)O)cc2)C(=O)N3C)c1', 'MMP-1FL (full-length interstitial collagenase) (Homo sapiens, UniProt P03956)', '> 100 µM');

====

tgt: MMP-3CD (catalytic domain of stromelysin-1) (Homo sapiens, UniProt P08254)
Sequence (P08254 100-272 limits assumed): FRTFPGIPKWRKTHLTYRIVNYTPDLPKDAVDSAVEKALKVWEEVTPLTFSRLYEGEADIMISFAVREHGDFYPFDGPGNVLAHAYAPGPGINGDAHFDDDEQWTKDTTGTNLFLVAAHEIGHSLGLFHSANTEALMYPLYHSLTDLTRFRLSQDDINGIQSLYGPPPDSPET
experimental_protocol: Thiopeptolide hydrolysis assay, MMP-3CD
Type: biochemical
assay_setup: Table 2; thiopeptolide substrate, MES buffer pH 6.0; read-out: IC50 (μM) Versus Certain MMPs: MMP03 (CD)
parameter: IC50 (µM)

INSERT INTO results (compound, unit_abbreviation, comparative_sign, obs_value) VALUES
  ('CN1C(=O)N(Cc2ccccc2)S(=O)(=O)c2cc(C(=O)NCc3ccc4nsnc4c3)ccc21 [Example 24]', 'µM', '=', 13),
  ('CN1C(=O)N(Cc2ccc(C(=O)O)cc2)S(=O)(=O)c2cc(C(=O)NCc3ccccc3)ccc21 [Example 11]', 'µM', '>', 100),
  ('COc1ccc(CNC(=O)c2ccc3c(c2)S(=O)(=O)N(Cc2ccc(S(=O)(=O)N4CCOCC4)cc2)C(=O)N3C)cc1 [Example 19]', 'µM', '=', 11),
  ('COc1cc(CNC(=O)c2ccc3c(c2)S(=O)(=O)N(Cc2ccccc2)C(=O)N3C)ccn1 [Example 21]', 'µM', '>', 30),
  ('COc1ccc(CNC(=O)c2ccc3c(c2)S(=O)(=O)N(Cc2ccc(C(=O)N4CCCCC4)cc2)C(=O)N3C)cc1 [Example 27]', 'µM', '=', 10),
  ('COc1ccc(CNC(=O)c2ccc3c(c2)S(=O)(=O)N(Cc2ccc4ccccc4c2)C(=O)N3C)cc1 [Example 22]', 'µM', '>', 30),
  ('COc1ccc(CNC(=O)c2ccc3c(c2)S(=O)(=O)N(Cc2ccc([N+](=O)[O-])cc2)C(=O)N3C)cc1 [Example 17]', 'µM', '=', 16);
